Test system: Leishmania donovani
Assay: Antileishmanial activity against Leishmania donovani MHOM/SD/62/1S-CL2D
Assay type: functional, organism-based
observable: IC50

COc1cc(C2=NCCN2)ccc1-c1cn(-c2cccc(C3=NCCN3)c2)nn1    > 100 µM
COc1ccc(C2=NCCN2)cc1-c1cn(-c2cccc(C3=NCCN3)c2)nn1.Cl.Cl    4.9 µM
COc1cc(C(=N)NC(C)C)ccc1-n1cc(-c2ccc(C(=N)NC(C)C)cc2)nn1    > 100 µM
N=C(N)c1cccc(-c2cn(-c3cc(C(=N)N)ccc3O)nn2)c1    > 100 µM
COc1ccc(C(=N)N)cc1-n1cc(-c2cccc(C(=N)N)c2)nn1.Cl.Cl    > 100 µM
CC(C)NC(=N)c1ccc(-n2cc(-c3ccc(C(=N)NC(C)C)cc3O)nn2)cc1.Cl.Cl    > 50 µM
COc1cc(C2=NCCN2)ccc1-c1cn(-c2ccc(C3=NCCN3)cc2)nn1    > 100 µM
COc1ccc(C(=N)N)cc1-c1cn(-c2cccc(C(=N)N)c2)nn1    > 100 µM
COc1ccc(C(=N)NC(C)C)cc1-c1cn(-c2cccc(C(=N)NC(C)C)c2)nn1    > 100 µM
COc1cc(C(=N)NC(C)C)ccc1-c1cn(-c2ccc(C(=N)NC(C)C)cc2)nn1    > 100 µM
